Provenance of the data: the supplement of paper PMC11246515

experiment: total protein half-life in vivo (active degradation + dilution); higher = more stable protein; conditions: E. coli NCM3722 delta-clpP; growth: N-lim chemostat; doubling time 6 h
MEASURE_NAME: total protein half-life in vivo

>>> value("MENKYSRLQISIHWLVFLLVIAAYCAMEFRGFFPRSDRPLINMIHVSCGISILVLMVVRLLLRLKYPTPPIIPKPKPMMTGLAHLGHLVIYLLFIALPVIGLVMMYNRGNPWFAFGLTMPYASEANFERVDSLKSWHETLANLGYFVIGLHAAAALAHHYFWKDNTLLRMMPRKRS [P0ABE5]")
"5.78 h"
>>> value("MIKQRTLKRIVQATGVGLHTGKKVTLTLRPAPANTGVIYRRTDLNPPVDFPADAKSVRDTMLCTCLVNEHDVRISTVEHLNAALAGLGIDNIVIEVNAPEIPIMDGSAAPFVYLLLDAGIDELNCAKKFVRIKETVRVEDGDKWAEFKPYNGFSLDFTIDFNHPAIDSSNQRYAMNFSADAFMRQISRARTFGFMRDIEYLQSRGLCLGGSFDCAIVVDDYRVLNEDGLRFEDEFVRHKMLDAIGDLFMCGHNIIGAFTAYKSGHALNNKLLQAVLAKQEAWEYVTFQDDAELPLAFKAPSAVLA [P0A725]")
"0.889 h"
